Ref: patent US9783537B2

For each of the compounds below, state its GI50.
# System: SN12C
# test_details: SRB 48 h growth assay, Renal SN12C
# Assay type: cell-based, human
# condition_notes: Homo sapiens, read-out: Growth Inhibition GI50
# output: bare number, implied unit µM

Result for C#Cc1ccc(-n2c(/C=C/c3ccc(C(F)(F)F)cc3)nc3ncccc3c2=O)cc1 , tested on SN12C, GI50: 2.08

Lab note: compound C#Cc1ccc(-n2c(/C=C/c3ccc4ccccc4c3)nc3ncccc3c2=O)cc1 tested on SN12C; recorded GI50 was 3.29

The measured GI50 that C#Cc1ccc(-n2c(/C=C/c3ccc4ccccc4n3)nc3ncccc3c2=O)cc1 showed for SN12C is 0.39

Summary: C#Cc1ccc(-n2c(/C=C/c3cc(OC)c(OC)c(OC)c3)nc3ncccc3c2=O)cc1 , SN12C, GI50 = 20.5

Observed GI50, SN12C, C#Cc1ccc(-n2c(/C=C/c3ccc(O)cc3)nc3ncccc3c2=O)cc1 : 5.16

----------
# Test system: UACC-257
# test_details: SRB 48 h growth assay, Melanoma UACC-257
# Type: cell-based, human
# condition_notes: Homo sapiens, UACC-257, Melanoma, read-out: Growth Inhibition GI50
endpoint_label: GI50 (nM)
State the answer as a number, implicitly in nM.

Reported UACC-257 GI50 for item C#Cc1ccc(-n2c(/C=C/c3ccc4ccccc4c3)nc3ncccc3c2=O)cc1 was 2110

Log: UACC-257, molecule C#Cc1ccc(-n2c(/C=C/c3cc(OC)c(OC)c(OC)c3)nc3ncccc3c2=O)cc1 , GI50 = 9740

The reported UACC-257 GI50 of C#Cc1ccc(-n2c(/C=C/c3ccc(O)cc3)nc3ncccc3c2=O)cc1 is 6300

For C#Cc1ccc(-n2c(/C=C/c3ccc(C(F)(F)F)cc3)nc3ncccc3c2=O)cc1 on UACC-257, measured GI50 was 1560

Assay UACC-257, sample C#Cc1ccc(-n2c(/C=C/c3ccc4ccccc4n3)nc3ncccc3c2=O)cc1 , GI50 read: 430

Observed GI50 on UACC-257, entry C#Cc1ccc(-n2c(/C=C/c3ccc(Cl)c(F)c3)nc3ncccc3c2=O)cc1 , equals 540

----------
So I've got a bunch of compounds here, and I need their Log10 TGI50 values.
# Test system: DU-145
# test_details: SRB 48 h growth assay, Prostate DU-145
# Type: cell-based, human
# condition_notes: DU-145, Prostate

Lab book: Log10 TGI50 of C#Cc1ccc(-n2c(/C=C/c3ccc4ccccc4n3)nc3ncccc3c2=O)cc1 noted as −6.15

Note to self: Log10 TGI50 recorded for C#Cc1ccc(-n2c(/C=C/c3ccc(C(F)(F)F)cc3)nc3ncccc3c2=O)cc1 was −4.92

Noted for C#Cc1ccc(-n2c(/C=C/c3ccc(O)cc3)nc3ncccc3c2=O)cc1 : its Log10 TGI50 reads −4.12

Log10 TGI50 measured on C#Cc1ccc(-n2c(/C=C/c3cc(OC)c(OC)c(OC)c3)nc3ncccc3c2=O)cc1 = >−4.00

Reported Log10 TGI50 of C#Cc1ccc(-n2c(/C=C/c3ccc4ccccc4c3)nc3ncccc3c2=O)cc1 : >−4.00

----------
# Tested on: NCI/ADR-RES
# test_details: SRB 48 h growth assay, Ovarian NCI/ADR-RES
# Assay type: cell-based, human
endpoint_label: Log10 TGI50
When you answer, write just the number.

GET /value?item= C#Cc1ccc(-n2c(/C=C/c3ccc(C(F)(F)F)cc3)nc3ncccc3c2=O)cc1 &field=Log10 TGI50 returns −5.16

// field: Log10 TGI50; key: C#Cc1ccc(-n2c(/C=C/c3cc(OC)c(OC)c(OC)c3)nc3ncccc3c2=O)cc1 ; value = −4.46

In plain terms, C#Cc1ccc(-n2c(/C=C/c3ccc4ccccc4n3)nc3ncccc3c2=O)cc1 has a documented Log10 TGI50 of −5.75
